Numbers sourced from patent US11952346B2.

Molecular target: human MRGPRX2 (Homo sapiens, UniProt Q96LB1)
Construct: expressed in transfected cells
Sequence (Q96LB1 whole entry): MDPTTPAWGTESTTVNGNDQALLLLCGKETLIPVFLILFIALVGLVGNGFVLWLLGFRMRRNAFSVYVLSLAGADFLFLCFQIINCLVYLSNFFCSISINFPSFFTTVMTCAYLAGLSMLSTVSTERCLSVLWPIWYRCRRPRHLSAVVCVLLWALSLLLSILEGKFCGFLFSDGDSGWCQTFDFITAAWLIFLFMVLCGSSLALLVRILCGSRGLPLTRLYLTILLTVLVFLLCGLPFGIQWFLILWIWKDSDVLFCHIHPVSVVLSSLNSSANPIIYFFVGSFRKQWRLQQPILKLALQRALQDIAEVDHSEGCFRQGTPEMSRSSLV
Assay: MRGPRX2 antagonist activity, IP-One HTRF assay in CHO cells expressing human MRGPRX2 versus Cortistatin-14
Type: cell-based
Settings: CHO cells stably expressing human MRGPRX2; versus 0.3 uM Cortistatin-14 agonist; IP-1 HTRF readout; read-out: MRGPR2 Antagonist Activity
Description: CHO cells stably transfected to express human MRGPRX2 were maintained in an incubator at 37° C. with 5% CO2 and grown in F12 (HAM) media with 10% fetal bovine serum (FBS), 1% Glutamax, 1% penicillin/streptomycin, 800 μg/mL Geneticin (G418), and 300 μg/mL Hygromycin B. Cells were plated in a 384-well assay plate at 20,000 cells per well in 12 μL of Opti-MEM and kept in an incubator overnight. […] The plate was read on a Molecular Devices SpectraMax iD5 plate reader. […]
endpointName: IC50

Please review the following examples before continuing.
Cc1cc2[nH]cnc2cc1C(=O)N[C@H]1CC[C@@H](Nc2cc(C(F)(F)F)nc(C(F)(F)F)c2)CC1 [4-8] = 100 to 500 nM
CC(=O)Nc1ccc(C(=O)N[C@H]2CC[C@@H](Nc3ccc(C#N)c(C(F)(F)F)c3)CC2)cc1 [4-48] = < 100 nM
CN1CCCc2cc(C(=O)N[C@H]3CC[C@@H](Nc4cc(C(F)(F)F)nc(C(F)(F)F)c4)CC3)ccc21 [4-21] = 501 to 1000 nM
O=C(N[C@H]1CC[C@@H](Nc2cc(C(F)(F)F)nc(C(F)(F)F)c2)CC1)n1cccc1 [4-2] = 100 to 500 nM
COc1ccc(C(=O)N[C@@H]2CCC[C@H](Nc3cc(C(F)(F)F)nc(C(F)(F)F)c3)C2)cc1 [example 1] = > 2500 nM

# value of IC50, human MRGPRX2 (Homo sapiens, UniProt Q96LB1), item COc1ccc(C(=O)N[C@@H]2CCC[C@H](Nc3nc(C(F)(F)F)nc4c3CCC4)C2)cc1 [1-6] = 1000 to 2500 nM

# value of IC50, human MRGPRX2 (Homo sapiens, UniProt Q96LB1), item N=C(N)Nc1ccc(C(=O)N[C@H]2CC[C@@H](Nc3cc(C(F)(F)F)nc(C(F)(F)F)c3)CC2)cc1 [4-20] = 501 to 1000 nM

# value of IC50, human MRGPRX2 (Homo sapiens, UniProt Q96LB1), item Cc1cc(N[C@H]2CC[C@@H](NC(=O)c3cnn(CC(F)(F)F)c3)CC2)cc(C(F)(F)F)c1C#N [5-5] = < 100 nM

# value of IC50, human MRGPRX2 (Homo sapiens, UniProt Q96LB1), item CN(C)c1ccc(C(=O)N[C@H]2CC[C@@H](Nc3cc(C(F)(F)F)nc(N(C)C)n3)CC2)cc1 [4-17] = 501 to 1000 nM

# value of IC50, human MRGPRX2 (Homo sapiens, UniProt Q96LB1), item O=C1Nc2c(C(=O)N[C@H]3CC[C@@H](Nc4cc(C(F)(F)F)nc(C(F)(F)F)c4)CC3)cccc2C1=O [4-7] = 1000 to 2500 nM

* * *

biological target: human MRGPRX2 (Homo sapiens); construct: expressed in transfected cells; experiment: MRGPRX2 antagonist activity, IP-One HTRF assay in CHO cells expressing human MRGPRX2 versus Cortistatin-14; type: cell-based; details: CHO cells stably expressing human MRGPRX2; versus 0.3 uM Cortistatin-14 agonist; IP-1 HTRF readout; read-out: MRGPR2 Antagonist Activity
pIC50: −log10 of the molar value.
endpointName: pIC50

Please review the following examples before continuing.
Cc1cc(N[C@H]2CC[C@@H](NC(=O)c3ccc4cncn4c3)CC2)cc(C(F)(F)F)c1C#N [5-9] = > 7.00
Cc1cc(N[C@H]2CC[C@@H](NC(=O)c3ccnc(NC(C)C)c3)CC2)cc(C(F)(F)F)c1C#N [5-2] = > 7.00

# value of pIC50, human MRGPRX2 (Homo sapiens), item N#Cc1ccc(N[C@H]2CC[C@@H](NC(=O)c3csc(N)n3)CC2)cc1C(F)(F)F [1-15] = 6.30 to 7.00

# value of pIC50, human MRGPRX2 (Homo sapiens), item COc1ccc(C(=O)N[C@H]2CCC[C@@H](Nc3cc(C(F)(F)F)cc(C(F)(F)F)c3)C2)cc1 (stereo in doubt) [example 5] = 5.60 to 6.00
